- test-name: Hydrogel formation, confirmed by vial inversion method
- Assay type: physicochemical
- condition-description: 1.5% w/v in PBS; time after the pH was adjusted to 7.4
Where a SMILES comes first, the peptide text is derived from it. The star is where a group is joined. Octanoyl = CCCCCCCC(=O)*
readout-name: Gelation Time (min)

[[record]]
compound = "CCCCCCCC(=O)N[C@@H](CC(C)C)C(=O)N[C@H](C(=O)N[C@@H](CC(=O)O)C(N)=O)[C@@H](C)CC [Compound 15] (Octanoyl-Leu-Ile-Asp-NH2)"
numeric_value = 5


a = CCCCCCCC(=O)N[C@H](C(=O)N[C@@H](C)C(=O)N[C@@H](CC(=O)O)C(N)=O)[C@@H](C)CC [Compound 9] (Octanoyl-Ile-Ala-Asp-NH2)
b = CCCCCCCC(=O)N[C@@H](CC(C)C)C(=O)N[C@@H](CC(C)C)C(=O)N[C@@H](CC(=O)O)C(N)=O [Compound 12] (Octanoyl-Leu-Leu-Asp-NH2)
Identify the item whose Gelation Time is the smaller number: a or b // return label of chosen record
a
